biological target: TLR2 (Homo sapiens, UniProt O60603); experiment: TLR2 agonist screening assay, HEK-Blue TLR2 reporter cell line (NF-kB-driven SEAP, absorbance at 600 nm); format: cell-based; set-up: host or cells: HEK-293 (HEK-Blue TLR2 reporter cell line); conditions: HEK-Blue TLR2 reporter cells, agonist mode; average of all runs (Table 4)
Sequence (O60603 21-784): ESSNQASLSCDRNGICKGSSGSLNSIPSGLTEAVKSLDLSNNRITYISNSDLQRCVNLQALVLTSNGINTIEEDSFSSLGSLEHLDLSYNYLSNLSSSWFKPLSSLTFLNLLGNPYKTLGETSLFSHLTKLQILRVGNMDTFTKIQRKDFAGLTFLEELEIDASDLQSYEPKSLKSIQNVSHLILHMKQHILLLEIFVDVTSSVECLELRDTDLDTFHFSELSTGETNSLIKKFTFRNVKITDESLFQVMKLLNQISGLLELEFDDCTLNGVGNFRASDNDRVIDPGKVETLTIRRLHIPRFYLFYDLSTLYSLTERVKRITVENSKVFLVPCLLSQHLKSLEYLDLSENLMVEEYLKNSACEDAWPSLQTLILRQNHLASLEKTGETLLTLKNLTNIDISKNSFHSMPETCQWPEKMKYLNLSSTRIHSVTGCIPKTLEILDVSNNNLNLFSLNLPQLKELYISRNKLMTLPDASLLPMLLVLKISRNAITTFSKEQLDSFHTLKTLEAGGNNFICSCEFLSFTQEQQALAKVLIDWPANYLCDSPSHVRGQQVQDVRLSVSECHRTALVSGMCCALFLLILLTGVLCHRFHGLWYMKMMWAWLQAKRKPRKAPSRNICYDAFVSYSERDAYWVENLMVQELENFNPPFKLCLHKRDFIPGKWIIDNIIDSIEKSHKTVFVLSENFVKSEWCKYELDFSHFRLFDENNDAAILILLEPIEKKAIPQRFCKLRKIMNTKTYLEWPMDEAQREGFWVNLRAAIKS
pEC50: −log10 of the molar value.
OBSERVATION TYPE: pEC50

In plain terms, CCCCCCCC(=O)N1CCN(S(=O)(=O)c2cccc(C(=O)N3C[C@@H](C(=O)N[C@H]4C[C@@H]4c4ccccc4)[C@H](C(=O)N[C@H]4C[C@@H]4c4ccccc4)C3)c2)C[C@H]1C(=O)NCCCCCC has a documented pEC50 of < 6.00

Short answer for CCCCCCN1C(=O)[C@H](CCCCC)NC(=O)[C@@H]1CNC(=O)c1ccc(C(=O)N2C[C@@H](C(=O)N[C@H]3C[C@@H]3c3ccccc3)[C@H](C(=O)N[C@H]3C[C@@H]3c3ccccc3)C2)cc1 : pEC50 was 6.00 to 6.45

The molecule listed as CCCCCCCCCCCCCNC(=O)N[C@@H]1CN(C(=O)c2ccc(C(=O)N3C[C@@H](C(=O)N[C@H]4C[C@@H]4c4ccccc4)[C@H](C(=O)N[C@H]4C[C@@H]4c4ccccc4)C3)cc2)C[C@@H]1OC has a reported pEC50 of 7.30 to 10.00

According to the records, this molecule CCCCCCNC(=O)CC[C@@H](NC(=O)c1ccc(C(=O)N2C[C@@H](C(=O)N[C@H]3C[C@@H]3c3ccccc3)[C@H](C(=O)N[C@H]3C[C@@H]3c3ccccc3)C2)cc1)C(=O)NCCCCCC displays pEC50 of < 6.00

----------
Overview of recorded EC50 for various molecules
Molecular target: TLR2 (Homo sapiens)
Experiment: TLR2 agonist screening assay, HEK-Blue TLR2 reporter cell line (NF-kB-driven SEAP, absorbance at 600 nm)
Format: cell-based
Parameters: host or cells: HEK-293 (HEK-Blue TLR2 reporter cell line)
Details: HEK-Blue TLR2 reporter cells, agonist mode; average of all runs (Table 3)
Description: TLRs are a class of cell-surface receptors expressed on many different cell types that recognize conserved structural motifs present on pathogen-derived molecules. TLR2 recognizes bacteria-derived lipopeptides. […] The in vitro TLR2 assay consists of a cell line that responds to TLR2 engagement by producing a factor that elicits a color change in the culture media and can be readily measured by various colorimetric detection methods. […]

Short answer on TLR2 (Homo sapiens) for CCCCCCCOC1CN(C(=O)c2ccc(C(=O)N3C[C@@H](C(=O)N[C@H]4C[C@@H]4c4ccccc4)[C@H](C(=O)N[C@H]4C[C@@H]4c4ccccc4)C3)cc2)C[C@H]1OCCCCCCC (stereo partly drawn) [Compound 016] , EC50: > 1000 nM

Bench note, TLR2 (Homo sapiens): CCCCCCNC(=O)[C@H](CCNC(=O)c1ccc(C(=O)N2C[C@@H](C(=O)N[C@H]3C[C@@H]3c3ccccc3)[C@H](C(=O)N[C@H]3C[C@@H]3c3ccccc3)C2)cc1)NC(=O)CCCCCC [Compound 017] , EC50 reads > 1000 nM

Entry CCCCCCCCCCCCCCNC(=O)C1CN(C(=O)c2ccc(C(=O)N3C[C@@H](C(=O)N[C@H]4C[C@@H]4c4ccccc4)[C@H](C(=O)N[C@H]4C[C@@H]4c4ccccc4)C3)cc2)CCN1 (mixture of isomers) [Compound 054] : EC50 on TLR2 (Homo sapiens) = 51 to 350 nM
